Tested on: ATXN2-luc
Experiment: Secondary assays, Bright-Glo luciferase in H2 and S2 cells
Type: cell-based
Conditions: minimum ATXN2-luc luciferase over 12 doses; H2 and S2 cells
Method: Compounds were plated at 2× concentrations in 25 μl in 384 well plates with each compound dose plated in triplicate. […] Cells were grown 24 hrs then assayed first by using the CellTiter-Fluor reagent (20 μl) followed by the addition of Bright-Glo ([…]) luciferase assay, using a multimode plate reader (Beckman DT880). […] IC50s were determined by the Hill coefficient method using an online tool (https://www.aatbio.com/tools/ic50-calculator). […]
With a cut-off of 20%, any min ATXN2-luc strictly below it is called Met; any min ATXN2-luc meeting it or above is called Not met.

molecule: CC1(C)CC(=O)c2c(C(F)(F)F)nn(-c3ccc(C(N)=O)c(N[C@H]4CC[C@H](O)CC4)c3)c2C1 [SNX-2112]
target_entity: ATXN2-luc
category: Met

molecule: Cc1cccc(Nc2nc(N[C@@H]3CCCC[C@@H]3N)ncc2C(N)=O)c1 [PRT-060318]
target_entity: ATXN2-luc
category: Not met

molecule: CCc1c(O)cc(O)c(C(=O)c2ccc(OCCN3CCOCC3)c(OC)c2)c1CC(=O)N(CCOC)CCOC [KW-2478]
target_entity: ATXN2-luc
category: Not met

molecule: C[C@H]1CCC/C=C/[C@@H]2C[C@H](O)C[C@H]2[C@H](O)/C=C/C(=O)O1 [Brefeldin A]
target_entity: ATXN2-luc
category: Not met

molecule: N[C@@H](Cc1ccc(N(CCCl)CCCl)cc1)C(=O)O [Melphalan]
target_entity: ATXN2-luc
category: Not met

molecule: CNC(=O)c1cc(Oc2ccc(NC(=O)Nc3cc(C(C)(C)C)nn3-c3ccc4ncccc4c3)c(F)c2)ccn1 [Rebastinib (DCC-2036)]
target_entity: ATXN2-luc
category: Not met

molecule: CCNC(=O)c1noc(-c2cc(C(C)C)c(O)cc2O)c1-c1ccc(CN2CCOCC2)cc1 [Luminespib (NVP-AUY922)]
target_entity: ATXN2-luc
category: Met

molecule: COc1c(C)cnc(Cn2cnc3c(Cl)nc(N)nc32)c1C [CNF-2024 (BIIB021)]
target_entity: ATXN2-luc
category: Met

molecule: Nc1ncnc2c1c(-c1cnc3[nH]ccc3c1)nn2C1CCCC1 [PP121]
target_entity: ATXN2-luc
category: Not met

molecule: S=C(NCCCN1CCOCC1)N1CCN(c2nc(-c3ccccc3)cs2)CC1 [MLS000706289]
target_entity: ATXN2-luc
category: Not met

molecule: O=C(O)c1ccc2c(c1)nc(Nc1cccc(Cl)c1)c1ccncc12 [Silmitasertib]
target_entity: ATXN2-luc
category: Not met

molecule: Clc1ccc(C[n+]2cc(-c3ccccc3)n3c2CCCCC3)c(Cl)c1.[Br-] [MLS000420216]
target_entity: ATXN2-luc
category: Not met

molecule: O=c1[nH]c2ccc(Cl)cc2c(N[C@@H]2CN3CCC2CC3)c1-c1nc2ccccc2[nH]1 [CHIR-124]
target_entity: ATXN2-luc
category: Met

molecule: NC(=O)Nc1cc(-c2cccc(F)c2)sc1C(=O)N[C@H]1CCCNC1 [AZD-7762]
target_entity: ATXN2-luc
category: Not met

molecule: CN(c1ccccc1CNc1nc(Nc2ccc3c(c2)CC(=O)N3)ncc1C(F)(F)F)S(C)(=O)=O [PF-431396]
target_entity: ATXN2-luc
category: Met
